Here, each record is paired with measured chromatographic logP data.
Experiment: logP by HPLC on reversed-phase columns (C 18), method [a], acidic range pH 2.3
Assay type: physicochemical
Details: pH 2.3, logP (pH2.3)
Just the number.

- CC(O)c1cccc(Nc2ncc(Cl)c(Cl)n2)c1 (stereo not shown): 1.98
- CCS(=O)(=O)C(C)c1cccc(Nc2ncc(C(F)(F)F)c(NC3CCC3)n2)c1 (stereo not shown): 2.89
- CC(C)CSc1cccc(Nc2ncc(C(F)(F)F)c(Cl)n2)c1: 5.4
- Clc1ncc(Br)c(NC2CCC2)n1: 2.86
- COCC(O)c1cccc(N)c1 (stereo not shown): 0.51

Look up and state reported chromatographic logP for COCCOC(c1cccc(N)c1)C(F)(F)F (stereo not shown)
1.64

Using known records, supply chromatographic logP for CC[S+]([O-])C(C)c1cccc(Nc2ncc(C(F)(F)F)c(NC3CCC3)n2)c1 (stereo not shown)
2.55

Please report chromatographic logP for the following molecule: CSC(C)c1cccc(Nc2ncc(C(F)(F)F)c(Cl)n2)c1 (stereo not shown)
4.5

Identify measured chromatographic logP associated with `CCS(=O)(=O)c1cccc(Nc2ncc(Cl)c(NC3CCC3)n2)c1`
2.21

Hello, please tell me recorded chromatographic logP for this one: CCSC(C)c1cccc(N)c1 (stereo not shown) [IVc-I-4, 3-[1-(Ethylsulphanyl)ethyl]aniline]
1.46

###

Reported pest or weed control at 250 ppm values follow for various compounds
Test system: Pyricularia oryzae
Test: whole plant or invertebrate
Type: in vivo
Conditions: 120 h, read-out: efficacy

• COCC(O)c1cccc(Nc2ncc(C(F)(F)F)c(NC3CC3)n2)c1 (stereo not shown) = ≥ 80%
• CCCSc1cccc(Nc2ncc(Br)c(NC3CCC3)n2)c1 = ≥ 80%
• CCOCCOc1cccc(Nc2ncc(Cl)c(NC3CC3)n2)c1 = ≥ 80%
• COC(C)c1cccc(Nc2ncc(Br)c(NC3CCC3)n2)c1 (stereo not shown) = ≥ 80%
• COCc1cccc(Nc2ncc(Cl)c(NCCF)n2)c1 = ≥ 80%

We next turn to a different compound, shown below.
Write pest or weed control at 250 ppm of `COCCOc1cccc(Nc2ncc(Cl)c(NC3CCC3)n2)c1` ; system used: Pyricularia oryzae
≥ 80%

###

Each entry below carries its reported chromatographic logP.
Test: logP by LC-MS on reversed-phase columns (C 18), method [c], neutral range pH 7.8
Type: physicochemical
Settings: pH 7.8

• CCOCCOc1ccc(Nc2ncc(C(F)(F)F)c(NC3CC3)n2)cc1 = 3.64
• CCOCCOc1ccc(Nc2ncc(Cl)c(NC3CC3)n2)cc1C(F)(F)F = 4
• CCNc1nc(Nc2cccc(COC)c2)ncc1Cl = 2.84
• COCCOC(C)c1cccc(Nc2ncc(C(F)(F)F)c(NC3CC3)n2)c1 (stereo not drawn) = 3.61
• COCc1cccc(Nc2ncc(Cl)c(N(C)C(C)C)n2)c1 = 4
• COC(C)(C)c1cccc(Nc2ncc(Cl)c(NC3CC3)n2)c1 = 3.5

For the compound COCc1cccc(Nc2ncc(Cl)c(N(C)C3CC3C)n2)c1 (stereo not drawn) , give its measured chromatographic logP value.
4.36

Provide chromatographic logP value for the following compound: CC[S+]([O-])c1cccc(Nc2ncc(Br)c(NC3CCC3)n2)c1 (stereo not drawn)
2.63

Could you please provide reported chromatographic logP for COCc1cccc(Nc2ncc(Cl)c(NC3CCC3C)n2)c1 (stereo not drawn) ? Thanks!
4

###

Below, each of the compounds is paired with its reported log p value.
Experiment: logP by LC-MS on reversed-phase columns (C 18), method [b], acidic range pH 2.7
Type: physicochemical
Settings: pH 2.7

* CCCC(C)S(=O)(=O)C(C)c1cccc(Nc2ncc(C(F)(F)F)c(NC3CC3)n2)c1 (stereo not drawn) | 3.47[b]
* COCC(C)Oc1ccc(Nc2ncc(Cl)c(NC3CC3)n2)cc1C(F)(F)F (stereo not drawn) | 2.91[b]
* CCN(c1nc(Nc2cccc(COC)c2)ncc1Cl)C1CC1 | 3.24[b]
* CCOCCOCc1cccc(Nc2ncc(Cl)c(NC3CC3)n2)c1 | 2.51[b]
* Fc1cccc(Nc2ncc(Cl)c(NC3CC3)n2)c1 | 1.87[b]

Indicate its recorded log p; the compound in question is COCC(C)Oc1ccc(Nc2ncc(Br)c(NC3CC3)n2)cc1Cl (stereo not drawn)
2.75[b]

Given the compound COC(c1cccc(Nc2ncc(Br)c(NC3CCC3)n2)c1)C(F)(F)F (stereo not drawn) , write its reported log p.
3[b]

Please report log p for the following compound: COCC(C)Oc1ccc(Nc2ncc(Br)c(NC3CC(C)C3)n2)cc1 (stereo not drawn)
2.27[b]

For the compound CCS(=O)(=O)C(C)c1cccc(Nc2ncc(Br)c(NC3CC3)n2)c1 (stereo not drawn) , give its measured log p value.
1.76[b]

State its log p: `FC(F)C(F)(F)COCc1cccc(Nc2ncc(Cl)c(NC3CC3)n2)c1`
2.69[b]

Give log p for the following compound: CS(=O)(=O)Cc1cccc(Nc2ncc(Cl)c(NC3CC3C(F)(F)F)n2)c1 (stereo not drawn)
1.96[b]

###

Overview of recorded chromatographic logP for various compounds
Test: logP by HPLC on reversed-phase columns (C 18), method [a], acidic range pH 2.3
Assay type: physicochemical
Conditions: pH 2.3, logP (pH2.3)
Write the value as a bare number.

* CCC(SC)c1cccc([N+](=O)[O-])c1 (centres unmarked) | 3.51
* CCCSc1cccc(Nc2ncc(C(F)(F)F)c(Cl)n2)c1 | 4.99
* COCCCOC(C)c1cccc(Nc2ncc(Cl)c(NC3CC3)n2)c1 (centres unmarked) | 2.2
* CC(C)Sc1cccc(Nc2ncc(C(F)(F)F)c(Cl)n2)c1 | 4.93
* CCSC(C)c1cccc(Nc2ncc(C(F)(F)F)c(Cl)n2)c1 (centres unmarked) | 4.9

Okay, next one:
Please supply the value of reported chromatographic logP for the item COC(C)c1cccc(Nc2ncc(Br)c(Cl)n2)c1 (centres unmarked)
3.09

###

Assay: logP by LC-MS on reversed-phase columns (C 18), method [c], neutral range pH 7.8
Assay type: physicochemical
Conditions: pH 7.8
chromatographic logP under 3 gets T, anything at or over 3 gets F.

Check out these entries, answers already filled in.
* CC[S+]([O-])c1cccc(Nc2ncc(C(F)(F)F)c(NC3CCC3)n2)c1 (stereo not drawn) [Example 119] | T
* CCC[S+]([O-])c1cccc(Nc2ncc(Br)c(NC3CC3)n2)c1 (stereo not drawn) [Example 102] | T
* COC(C)c1cc(Nc2ncc(Cl)c(NC3CC3)n2)ccc1C (stereo not drawn) [Example 92] | F

Turning now to a further molecule:
Hello, is chromatographic logP of the following molecule strictly smaller than 3? COCCCSc1cccc(Nc2ncc(Cl)c(NC3CC3)n2)c1 [Example 201]
F

###

Experiment: logP by LC-MS on reversed-phase columns (C 18), method [c], neutral range pH 7.8
Assay type: physicochemical
Details: pH 7.8
# label = satisfied if chromatographic logP >= 4 else not satisfied

Reference set (3 entries):
• CC[S+]([O-])c1cccc(Nc2ncc(Cl)c(NC3CC3)n2)c1 (centres unmarked) [Example 114] = not satisfied
• CCC(c1cccc(Nc2ncc(Cl)c(NC3CC3)n2)c1)S(=O)(=O)CC (centres unmarked) [Example 120] = not satisfied
• CCCS(=O)(=O)c1cccc(Nc2ncc(Cl)c(NC3CCC3)n2)c1 [Example 103] = not satisfied

Pending compound:
Quick check: does CCC(C)SC(C)c1cccc(Nc2ncc(C(F)(F)F)c(NC3CC3)n2)c1 (centres unmarked) [Example 132] have chromatographic logP greater than or equal to 4?
satisfied

###

Experiment: logP by LC-MS on reversed-phase columns (C 18), method [c], neutral range pH 7.8
Format: physicochemical
Conditions: pH 7.8
VALUE TYPE: chromatographic logP
Write the number on its own, no unit after it.

The examples below pair each entry with its known result.
• COC(C)c1cccc(Nc2ncc(Cl)c(NCC(F)(F)F)n2)c1 (stereo not drawn) = 3.18
• CCC(C)Sc1cccc(Nc2ncc(C(F)(F)F)c(NC3CC3)n2)c1 (stereo not drawn) = 5.01
• CC[S+]([O-])C(C)c1cccc(Nc2ncc(Cl)c(NC3CC3)n2)c1 (stereo not drawn) = 2.16
• COCCOc1ccc(Nc2ncc(C(F)(F)F)c(NC3CC3)n2)cc1 = 3.06
• CCCS(=O)(=O)c1cccc(Nc2ncc(C(F)(F)F)c(NC3CC3C)n2)c1 (stereo not drawn) = 3.61

Name the recorded chromatographic logP of the item CCC(C)SC(C)c1cccc(Nc2ncc(Cl)c(NC3CC3)n2)c1 (stereo not drawn) in your answer.
5.08

Look up and state reported chromatographic logP for `CCCCS(=O)(=O)c1cccc(Nc2ncc(Br)c(NC3CC3)n2)c1`
3.32

// fetch chromatographic logP given entry COCC(O)c1cccc(Nc2ncc(C(F)(F)F)c(NC3CC3)n2)c1 (stereo not drawn)
2.64

Input COC(C)c1cccc(Nc2ncc(Cl)c(NC(C)C)n2)c1 (stereo not drawn) , output reported chromatographic logP.
3.67
